- PROCEDURE_DETAILS: chemical genetic growth profiling, strain panel (AID 1159580);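 further: tested at 20 µM; growth read once vehicle control cultures reached saturation at 30 °C; lower values mean less growth of the strain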
- SETUP_CONDITIONS: S. cerevisiae deletion strains, growth OD, locus YOR083W, strain WHI5, stronger effect = lower value
The whole screen tested about 5,500 compounds, of which about 2,000 (36%) were called active. Not shown: some 18% with an inconclusive outcome. Some of the results follow.
// NB: equality with 1 counts as NO; only normalized growth strictly below is YES

1. C=C1C2=CC(=O)O[C@@H](c3ccoc3)[C@]2(C)CCC1[C@@]1(C)C=CC(=O)C(C)(C)[C@@H]1CC(=O)OC (stereo partly specified) :: NO
2. CN(C)CCC(c1ccc(Br)cc1)c1ccccn1 (stereo unspecified) :: YES
3. CN(C)N=Nc1nc[nH]c1C(N)=O :: YES
4. CN(C)C(=O)Nc1ccc(Cl)c(Cl)c1 :: YES
5. N[C@@H]1[C@@H](O)[C@H](O)[C@@H](CO)O[C@H]1O :: NO
